# Amidase inhibition per record follows
system: amidase; assay: Mouse liver microsomal amidase, isoniazid to isonicotinic acid; type: biochemical; conditions: 1 uM
API: value field is a number in %; no unit string.

Solved entries:
O=c1cc(-c2ccc(O)c(O)c2)oc2cc(O[C@@H]3O[C@H](CO)[C@@H](O)[C@H](O)[C@H]3O)cc(O)c12 [Luteolin-7-Glucoside] :: 3.2
C=CC(=C)CCC=C(C)C :: 1.7
O=c1c(O)c(-c2ccc(O)c(O)c2)oc2cc(O)cc(O)c12 :: 48.1
O=c1c(-c2ccc(O)cc2)coc2c([C@@H]3O[C@H](CO)[C@@H](O)[C@H](O)[C@H]3O)c(O)ccc12 :: 40.9

// moving on: another record for Amidase inhibition
Q) Lab note: need Amidase inhibition with amidase for entry COc1ccc(-c2cc(=O)c3c(OC)c(OC)c(OC)cc3o2)cc1OC , please look it up.
A) −0.8

Origin of measurements: patent US8969312B2
